assay: Displacement of [3H]DTG from opioid sigma2 receptor in rat brain homogenate; format: tissue-based
Documented Ki across a set of compounds
Use nM as the unit, but write only the number.

* O=c1oc2ccccc2n1CCCN1CCN(C2CCCCC2)CC1 | 8.74
* CCCc1ccc2c(c1)sc(=O)n2CCN1CCCCCC1 | 831

### Prompt Value lookup for Ki; key = `O=c1sc2ccccc2n1CCCN1CCN(C2CCCCC2)CC1`
### Response 3.05

### Prompt Value lookup for Ki; key = `S=c1sc2ccccc2n1CCCCN1CCN(C2CCCCC2)CC1`
### Response 0.55

### Prompt Value lookup for Ki; key = `O=c1sc2ccccc2n1CCN1CCN(C2CCCCC2)CC1`
### Response 2.25

### Prompt Value lookup for Ki; key = `O=c1oc2ccccc2n1CCCCCCN1CCN(C2CCCCC2)CC1`
### Response 3.06
